Data credit: ChEMBL document CHEMBL5052843

# Target Of Assay: UniProt:O14791
# Measurement Description: Inhibition of APOL1 G1 variant in human HEK293-T-REx cells measured by Thallium assay
pIC50: −log10 of the molar value.
Measured Quantity: pIC50

These recorded examples may help you get a feel for the data.
Compound: Cc1c(F)ccc2c(CCC(=O)N[C@@H]3C(=O)NC[C@H]3O)c(-c3ccc(F)cc3)[nH]c12
pIC50: > 6.60

Compound: O=C(CCc1c(-c2ccc(F)cc2)[nH]c2ccccc12)N[C@@H]1C(=O)NC[C@@H]1O
pIC50: < 6.00

Compound: O=C(CCc1c(-c2ccc(Cl)cc2)[nH]c2ccccc12)N[C@@H]1C(=O)NC[C@H]1O
pIC50: > 6.60

Compound: O=C(CCc1c(-c2ccc(OC(F)F)cc2)[nH]c2c(F)cc(F)cc12)N[C@@H]1C(=O)NC[C@H]1O
pIC50: > 6.60

Q) Item C[C@H]1CNC(=O)[C@H]1NC(=O)CCc1c(-c2ccc(F)cc2)[nH]c2c(F)cc(F)cc12 has what recorded pIC50?
A) < 6.00

Q) Follow-up item: O=C(CCc1c(-c2ccccc2)[nH]c2c(F)cc(F)cc12)N[C@H]1CCNC1=O
A) > 6.60

Q) Follow-up item: O=C1NC[C@@H](O)[C@@H]1NC(=O)[C@@H](O)Cc1c(-c2ccc(F)cc2)[nH]c2c(F)cc(F)cc12
A) < 6.00

---

# Target Of Assay: Apolipoprotein L1 (Homo sapiens)
# Measurement Description: Inhibition of APOL1 G1 variant in human HEK293-T-REx cells measured by Thallium assay
pIC50: −log10 of the molar value.
Listing of entries alongside the reported pIC50.

These recorded examples may help you get a feel for the data.
Compound: O=C(CCc1c(-c2ccc(F)cc2)[nH]c2ccc(O)cc12)N[C@H]1CCNC1=O
pIC50: < 6.00

Compound: O=C(CCc1c(-c2ccc(Cl)c(F)c2)[nH]c2ccccc12)N[C@@H]1C(=O)NC[C@H]1O
pIC50: > 6.60

Compound: O=C1NC[C@@H](O)[C@@H]1NC(=O)C(F)(F)Cc1c(-c2ccc(F)cc2)[nH]c2c(F)cc(F)cc12
pIC50: > 6.60

Compound: O=C(CCc1c(-c2ccc(F)cc2)[nH]c2c(F)cc(F)cc12)N[C@H]1C[C@H](CF)NC1=O
pIC50: < 6.00

Compound: O=C(CCc1c(-c2ccc(F)cc2)[nH]c2c(F)cc(F)cc12)N[C@H]1C[C@@H](CF)NC1=O
pIC50: < 6.00

Compound: Cc1c(F)c(F)cc2c(CCC(=O)N[C@@H]3C(=O)NC[C@H]3O)c(-c3ccc(F)cc3)[nH]c12
pIC50: > 6.60

Compound: COc1ccc2[nH]c(-c3ccc(F)cc3)c(CCC(=O)N[C@H]3CCNC3=O)c2c1
pIC50: < 6.00

Compound: O=C(CCc1c(-c2ccc(F)cc2)[nH]c2ccccc12)N[C@@H]1C(=O)NC[C@H]1O
pIC50: > 6.60

Q) Fill in the recorded pIC50 for this compound, with Apolipoprotein L1 (Homo sapiens) as test system: O=C(CCc1c(-c2ccccc2)[nH]c2ccc(F)cc12)N[C@H]1CCNC1=O
A) > 6.60

Q) Follow-up item: O=C(CCc1c(-c2ccc(F)cc2)[nH]c2c(C(F)(F)F)cccc12)N[C@@H]1C(=O)NC[C@H]1O
A) > 6.60

Q) Follow-up item: CC1(NC(=O)CCc2c(-c3ccc(F)cc3)[nH]c3c(F)cc(F)cc23)CCNC1=O (stereo not given)
A) 6.60

Q) Follow-up item: O=C(CCc1c(-c2ccccc2)[nH]c2c(C3CCOC3)cccc12)N[C@@H]1C(=O)NC[C@H]1O (stereo not given in full)
A) 6.60

---

# System: Trypanosoma brucei brucei
# Measurement Description: Antitrypanosomal activity against Trypanosoma brucei brucei assessed as trypanosome lysis using recombinant APOL1 protein G1 variant and measured by Alamar blue based fluorescene assay
# Type: functional, organism-based
Listing of entries alongside the reported IC50.

Q) Fill in the recorded IC50 for this molecule, with Trypanosoma brucei brucei as test system: O=C(CCc1c(-c2ccc(F)c(F)c2)[nH]c2c(F)cc(F)cc12)N[C@@H]1C(=O)NC[C@H]1O
A) < 250 nM

Q) Follow-up item: O=C(CCc1c(-c2ccc(F)cc2)[nH]c2c(OC(F)F)cc(F)cc12)N[C@@H]1C(=O)NC[C@H]1O
A) 250 nM

Q) Follow-up item: O=C(CCc1c(-c2ccc(Cl)cc2)[nH]c2ccccc12)N[C@@H]1C(=O)NC[C@H]1O
A) < 250 nM

---

# Target Of Assay: Apolipoprotein L1 (Homo sapiens)
# Measurement Description: Inhibition of APOL1 G1 variant in human HEK293-T-REx cells measured by Thallium assay
pIC50: −log10 of the molar value.
Measured Quantity: pIC50

Compound String: O=C(CCc1c(-c2ccc(F)c(F)c2)[nH]c2ccccc12)N[C@@H]1C(=O)NC[C@H]1O
Measured Quantity: pIC50
Data Value: > 6.60
//
Compound String: Cc1ccc(-c2[nH]c3ccccc3c2CCC(=O)N[C@@H]2C(=O)NC[C@H]2O)cc1
Measured Quantity: pIC50
Data Value: > 6.60
//
Compound String: O=C(CCc1c(-c2ccc(F)cc2)[nH]c2c(F)cc(F)cc12)N[C@@H]1C(=O)NC[C@@H]1O
Measured Quantity: pIC50
Data Value: > 6.60
//
Compound String: O=C(CCc1c(-c2ccccc2)[nH]c2c(Br)cccc12)N[C@@H]1C(=O)NC[C@H]1O
Measured Quantity: pIC50
Data Value: > 6.60
//
Compound String: N#Cc1ccc(-c2[nH]c3c(F)cc(F)cc3c2CCC(=O)N[C@H]2CCNC2=O)cc1
Measured Quantity: pIC50
Data Value: > 6.60

Q) Item C[C@@H](Cc1c(-c2ccc(F)cc2)[nH]c2c(F)cc(F)cc12)C(=O)N[C@@H]1C(=O)NC[C@H]1O has what recorded pIC50?
A) 6.60

Q) Follow-up item: Cc1ccc(-c2[nH]c3c(F)cc(F)cc3c2CCC(=O)N[C@@H]2CCNC2=O)cc1
A) > 6.60

Q) Follow-up item: O=C(CCc1c(-c2ccc(F)cc2)[nH]c2c(F)cccc12)N[C@@H]1C(=O)NC[C@H]1O
A) > 6.60

Q) Follow-up item: O=C1C[C@H](NC(=O)CCc2c(-c3ccc(F)cc3)[nH]c3c(F)cc(F)cc23)C(=O)N1
A) 6.60

---

# Target Of Assay: Apolipoprotein L1 (Homo sapiens)
# Measurement Description: Inhibition of APOL1 G1 variant in human HEK293-T-REx cells measured by Thallium assay
pIC50: −log10 of the molar value.
Measured Quantity: pIC50

These recorded examples may help you get a feel for the data.
Compound String: O=C(CCc1c(-c2ccc(OC(F)(F)F)cc2)[nH]c2ccccc12)N[C@@H]1C(=O)NC[C@H]1O
pIC50: > 6.60

Compound String: O=C(CCc1c(-c2ccc(F)cc2)[nH]c2c(F)ccc(F)c12)N[C@H]1CCNC1=O
pIC50: < 6.00

Kindly consider the entry below.
Q) Item O=C(CCc1c(-c2ccc(F)c(F)c2)[nH]c2c(F)cc(F)cc12)N[C@@H]1C(=O)NC[C@H]1O has what recorded pIC50?
A) > 6.60

---

# Target Of Assay: Apolipoprotein L1 (Homo sapiens)
# Measurement Description: Inhibition of APOL1 G1 variant in human HEK293-T-REx cells measured by Thallium assay
pIC50: −log10 of the molar value.
Measured Quantity: pIC50

These recorded examples may help you get a feel for the data.
Compound String: Cc1cc(F)c2[nH]c(-c3ccc(F)cc3)c(CCC(=O)N[C@H]3CCNC3=O)c2c1
pIC50: 6.60
//
Compound String: C=C(C)c1cccc2c(CCC(=O)N[C@@H]3C(=O)NC[C@H]3O)c(-c3ccccc3)[nH]c12
pIC50: 6.60
//
Compound String: O=C(CCc1c(-c2ccc(F)cc2)[nH]c2c(C(F)F)cc(F)cc12)N[C@@H]1C(=O)NC[C@H]1O
pIC50: > 6.60
//
Compound String: N#Cc1ccc(-c2[nH]c3ccccc3c2CCC(=O)N[C@@H]2C(=O)NC[C@H]2O)cc1
pIC50: > 6.60
//
Compound String: O=C(CCc1c(-c2ccccc2)[nH]c2c(F)c(F)ccc12)N[C@@H]1C(=O)NC[C@H]1O
pIC50: > 6.60

Q) Item O=C(CCc1c(-c2ccccc2)[nH]c2cccc(F)c12)N[C@@H]1C(=O)NC[C@H]1O has what recorded pIC50?
A) > 6.60

Q) Follow-up item: O=C(N[C@@H]1C(=O)NC[C@H]1O)[C@H](O)Cc1c(-c2ccc(F)cc2)[nH]c2c(F)cc(F)cc12
A) < 6.00

Q) Follow-up item: O=C(CCc1c(-c2ccc(F)cc2)[nH]c2c(Cl)cc(F)cc12)N[C@H]1CCNC1=O
A) > 6.60

Q) Follow-up item: O=C(CCc1c(-c2ccc(F)cc2)[nH]c2c(F)cccc12)N[C@H]1CCNC1=O
A) > 6.60
